Data credit: patent US20230287217A1

Assay: UV-Vis absorption and fluorescence spectroscopy (spectral properties in aqueous media / PBS buffer)
Assay type: physicochemical
Conditions: aqueous media; absorption band width
Experimental: UV-Vis and fluorescence spectra were collected on a SpectraMax M5 spectrometer with a Microplate reader (Molecular Devices, Sunnyvale, CA). All absorbance spectra were reference corrected. Extinction coefficient was calculated from Beer’s Law plots of absorbance versus concentration. Relative quantum yields are reported using TMR and SiTMR as reference.
Below, each of the compounds is paired with its reported FWHMabs (nm) value.
# value in nm; strip the unit string

smiles.str	FWHMabs (nm)
CN(C)c1ccc2c(c1)[Si](C)(C)C1=CC(=[N+](C)C)C=CC1=C2c1cc(C(=O)NCCOCCOCCCCCCCl)ccc1C(=O)[O-]	45
Cc1ccccc1C1=C2C=C/C(=[N+](/C)CCCS(=O)(=O)[O-])C=C2[Si](C)(C)c2cc(N(C)C)ccc21	33

**Q:** # lookup: FWHMabs (nm) of CN(C)c1ccc2c(-c3cc(C(=O)O)ccc3C(=O)[O-])c3ccc(=[N+](C)C)cc-3oc2c1
**A:** 42

**Q:** Consider the compound shown here: CN(C)c1ccc2c(-c3cc(C(=O)NCc4ccc(COc5nc(N)nc6[nH]cnc56)cc4)ccc3C(=O)[O-])c3ccc(=[N+](C)C)cc-3oc2c1 What is its recorded FWHMabs (nm)?
**A:** 58

**Q:** Fill blank: measured FWHMabs (nm) of the compound Cc1cc(C(=O)O)ccc1-c1c2cc/c(=[N+](/C)CCCS(=O)(=O)[O-])cc-2oc2cc(N(C)C)ccc12 is ____.
**A:** 33

**Q:** For CN(C)c1ccc2c(-c3cc(C(=O)NCCCn4cc(-c5cccc(Nc6ncnc7ccccc67)c5)nn4)ccc3C(=O)[O-])c3ccc(=[N+](C)C)cc-3oc2c1 , what is its reported FWHMabs (nm)?
**A:** 44

----------
Assay: UV-Vis absorption and fluorescence spectroscopy (spectral properties in aqueous media / PBS buffer)
Assay type: physicochemical
Set-up: unit not given here
Details: aqueous media
The following compounds are listed with their measured Brightness values.
Give the figure only, with no unit attached.

smiles.str	observed.result
Cc1cc(C(=O)NCCCn2cc(-c3cccc(Nc4ncnc5ccccc45)c3)nn2)ccc1-c1c2cc/c(=[N+](/C)CCCS(=O)(=O)[O-])cc-2oc2cc(N(C)C)ccc12	35
Cc1cc(C(=O)[O-])ccc1C1=C2C=C/C(=[N+](/C)CCCS(=O)(=O)O)C=C2[Si](C)(C)c2cc(N(C)C)ccc21	82
CN(C)c1ccc2c(c1)[Si](C)(C)C1=CC(=[N+](C)C)C=CC1=C2c1ccccc1C(=O)O	7
CN(C)c1ccc2c(-c3ccccc3C(=O)[O-])c3ccc(=[N+](C)C)cc-3oc2c1	33
CN(C)c1ccc2c(c1)[Si](C)(C)C1=CC(=[N+](C)C)C=CC1=C2c1cc(C(=O)O)ccc1C(=O)[O-]	29
CN(C)c1ccc2c(-c3cc(C(=O)NCc4ccc(COc5nc(N)nc6[nH]cnc56)cc4)ccc3C(=O)[O-])c3ccc(=[N+](C)C)cc-3oc2c1	11

Next up:
**Q:** Sample C#Cc1cccc(Nc2ncnc3ccc(NC(=O)CCNC(=O)c4ccc(-c5c6cc/c(=[N+](/C)CCCS(=O)(=O)[O-])cc-6oc6cc(N(C)C)ccc56)c(C)c4)cc23)c1 — what was its Brightness?
**A:** 7
